experiment: BET inhibitor-based combinations targeting novel dependencies in MECOM-rearranged (r) AML: HNT-34 cell line (AID 2202234); conditions: HNT-34 AML viability, CellTiter-Glo luminescence, 48 h; series mostly up to 46 µM; also: nearly all actives have a fitted effect of over 35% in size
Inconclusive results are not listed. Calls of active or inactive are those of the source. Calls follow the shape of the dose curve; as a rule, active = well fitted inhibition curve with a large enough effect; inconclusive = small, poorly fitted or top-dose-only effect; inactive = no such curve, though single readings can be large or run the other way.
Outcome codes: active, inactive

compound=Cc1[nH]ncc1-c1cc2nc([C@@H]3CC4CCN3CC4)[nH]c(=O)c2s1 category_label=active
compound="COCC1(CO)C(=O)C2CCN1CC2 (configuration not stated)" category_label=active
compound=CC(=O)N1N=C(c2ccc(N)cc2)c2cc3c(cc2C[C@H]1C)OCO3 category_label=inactive
compound=O=C(O)CNC(=O)c1c(O)c2ccccc2n(Cc2ccccc2)c1=O category_label=inactive
compound=CCN1C[C@]2(OC(=O)c3ccccc3NC(C)=O)CC[C@H](OC)[C@@]34[C@H]5CC6[C@@H](OC)C[C@](O)(C(C[C@@H]23)[C@@H]14)[C@@]5(O)[C@@H]6OC category_label=inactive
compound=C[C@@H]1CC[C@@]2(OC1)O[C@H]1C[C@H]3[C@@H]4CC=C5C[C@@H](O[C@@H]6O[C@H](CO)[C@@H](O[C@@H]7O[C@@H](C)[C@H](O)[C@@H](O)[C@H]7O)[C@H](O)[C@H]6O[C@@H]6O[C@@H](C)[C@H](O)[C@@H](O)[C@H]6O)CC[C@]5(C)[C@H]4CC[C@]3(C)[C@H]1[C@@H]2C category_label=active
compound=C=C(C)[C@H]1Cc2c(ccc3c2O[C@@H]2COc4cc(OC)c(OC)cc4[C@@H]2C3=O)O1 category_label=active
compound=C[C@@H]1CC[C@H]2[C@@H](C)C(=O)O[C@@H]3O[C@@]4(C)CC[C@@H]1[C@]32OO4 category_label=active
compound=CC(C)[C@]12O[C@H]1[C@@H]1O[C@@]13[C@@]1(C)CCC4=C(COC4=O)[C@@H]1C[C@@H]1O[C@@]13C2=O category_label=active
compound=CC1(N2CCC(n3c([C@@H]4CCCNC4)nc4ccccc43)CC2)CCCCCCC1 category_label=active
compound=Cn1c(CCCC(=O)O)nc2cc(N(CCCl)CCCl)ccc21 category_label=active
compound=CN(C)CCN(C)CCc1ccc(Cl)c(Cl)c1 category_label=inactive
compound="CN1C(=O)CCS(=O)(=O)C1c1ccc(Cl)cc1 (configuration not stated)" category_label=inactive
compound="COC[C@H]1OC(=O)c2coc3c2[C@@]1(C)C1=C(C3=O)C2CCC(=O)[C@@]2(C)C[C@H]1OC(C)=O (some centres not stated)" category_label=active
compound=O=c1[nH]c2ccccc2n1CCCN1CCC(n2c(=O)[nH]c3cc(Cl)ccc32)CC1 category_label=inactive
compound=C#CCN(C)[C@H](C)Cc1ccccc1 category_label=inactive
compound="N#CC(O[C@@H]1O[C@H](CO[C@@H]2O[C@H](CO)[C@@H](O)[C@H](O)[C@H]2O)[C@@H](O)[C@H](O)[C@H]1O)c1ccccc1 (some centres not stated)" category_label=inactive
